# TEST_TARGET: VLA4 (Homo sapiens, UniProt P05556+P13612)
# Construct: endogenous in cells
# Sequence (P13612 34-1032): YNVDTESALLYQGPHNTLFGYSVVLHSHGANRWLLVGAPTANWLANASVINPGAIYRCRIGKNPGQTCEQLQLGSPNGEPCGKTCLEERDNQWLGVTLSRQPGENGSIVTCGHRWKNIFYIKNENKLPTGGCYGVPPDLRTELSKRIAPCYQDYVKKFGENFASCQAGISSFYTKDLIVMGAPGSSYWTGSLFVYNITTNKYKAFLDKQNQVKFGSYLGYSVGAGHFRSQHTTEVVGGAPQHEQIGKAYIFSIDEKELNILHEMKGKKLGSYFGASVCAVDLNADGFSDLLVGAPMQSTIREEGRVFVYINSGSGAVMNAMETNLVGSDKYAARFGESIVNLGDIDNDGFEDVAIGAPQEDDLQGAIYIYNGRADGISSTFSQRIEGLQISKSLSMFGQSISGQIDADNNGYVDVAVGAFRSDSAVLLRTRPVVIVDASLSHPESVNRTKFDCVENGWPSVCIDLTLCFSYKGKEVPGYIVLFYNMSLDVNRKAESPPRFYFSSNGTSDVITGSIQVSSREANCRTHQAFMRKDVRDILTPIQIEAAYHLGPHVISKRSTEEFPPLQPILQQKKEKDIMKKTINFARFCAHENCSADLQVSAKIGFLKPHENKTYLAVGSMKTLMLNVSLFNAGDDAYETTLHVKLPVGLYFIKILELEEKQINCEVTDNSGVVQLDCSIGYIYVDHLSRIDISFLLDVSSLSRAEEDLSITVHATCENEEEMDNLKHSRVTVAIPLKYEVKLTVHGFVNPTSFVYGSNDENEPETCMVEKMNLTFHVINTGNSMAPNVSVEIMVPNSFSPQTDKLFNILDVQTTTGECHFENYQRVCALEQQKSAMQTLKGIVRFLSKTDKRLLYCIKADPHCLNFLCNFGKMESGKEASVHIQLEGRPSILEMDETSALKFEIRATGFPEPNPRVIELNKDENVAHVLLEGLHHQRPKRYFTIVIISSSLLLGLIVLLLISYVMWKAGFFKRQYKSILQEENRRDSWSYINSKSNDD
# Sequence (P05556 21-798): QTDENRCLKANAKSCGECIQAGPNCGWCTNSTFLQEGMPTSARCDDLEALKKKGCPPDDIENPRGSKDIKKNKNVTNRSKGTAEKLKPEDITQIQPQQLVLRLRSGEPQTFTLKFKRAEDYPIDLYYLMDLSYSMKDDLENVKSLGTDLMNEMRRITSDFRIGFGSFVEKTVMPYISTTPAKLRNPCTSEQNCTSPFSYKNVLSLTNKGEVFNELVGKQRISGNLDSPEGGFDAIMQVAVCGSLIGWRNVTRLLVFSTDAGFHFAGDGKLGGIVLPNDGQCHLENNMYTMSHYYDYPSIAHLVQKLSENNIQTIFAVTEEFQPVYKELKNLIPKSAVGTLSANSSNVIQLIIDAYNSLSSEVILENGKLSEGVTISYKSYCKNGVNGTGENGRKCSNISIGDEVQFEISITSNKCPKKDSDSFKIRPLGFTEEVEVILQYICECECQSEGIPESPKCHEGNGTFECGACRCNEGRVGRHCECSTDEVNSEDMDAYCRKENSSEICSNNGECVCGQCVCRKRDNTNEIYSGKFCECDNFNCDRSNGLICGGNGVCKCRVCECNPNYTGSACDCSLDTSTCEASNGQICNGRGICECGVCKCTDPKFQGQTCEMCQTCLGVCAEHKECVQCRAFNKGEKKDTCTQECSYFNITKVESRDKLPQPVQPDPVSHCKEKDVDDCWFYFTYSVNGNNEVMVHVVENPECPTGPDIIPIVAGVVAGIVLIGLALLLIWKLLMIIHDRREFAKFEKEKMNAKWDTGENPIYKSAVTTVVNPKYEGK
# ASSAY_EXPLANATION: Inhibition of VLA4-dependent adhesion to BSA-CS1 (labelled Ramos cells)
# COND: binding of BCECF-AM labelled Ramos cells to CS1 peptide-coated wells, 2 mM MnCl2, 30 minutes at room temperature; IC50 range
pIC50: −log10 of the molar value.
READOUT: pIC50

molecule="COc1cc(CC(=O)NC(CC(C)C)C(=O)NC(CC(=O)O)c2ccccc2)c(Br)cc1O (stereo not drawn) [compound 1100]" readout=pIC50 reading="5.00 to 7.30"
molecule="COc1nc(CC(=O)NC(CC(C)C)C(=O)NC(CC(=O)O)c2ccc3c(c2)OCO3)ccc1NC(=O)Nc1ccccc1C (stereo not drawn) [compound 1336]" readout=pIC50 reading="> 7.30"
molecule="CC(C)CC(NC(=O)Cc1ccc(NC(=O)OCc2ccccc2)cc1)C(=O)NC(CC(=O)O)c1ccccc1 (stereo not drawn) [compound 1101]" readout=pIC50 reading="< 5.00"
molecule="CC(C)CC(NC(=O)Cc1cccc(NS(=O)(=O)c2ccccc2)c1)C(=O)NC(CC(=O)O)c1ccccc1 (stereo not drawn) [compound 1032]" readout=pIC50 reading="< 5.00"
molecule="CC(C)CC(NC(=O)CCCc1ccccc1)C(=O)NC(CC(=O)O)c1ccccc1 (stereo not drawn) [compound 1082]" readout=pIC50 reading="< 5.00"
molecule="CC(C)CC(NC(=O)CCCCCNC(=O)Nc1ccccc1)C(=O)NC(CC(=O)O)c1ccccc1 (stereo not drawn) [compound 1106]" readout=pIC50 reading="< 5.00"
molecule="CC(C)CC(NC(=O)Cc1ccc(Nc2ncc[nH]2)cc1)C(=O)NC(CC(=O)O)c1ccc2c(c1)OCO2 (stereo not drawn) [compound 1390]" readout=pIC50 reading="5.00 to 7.30"
molecule="CC(C)CC(NC(=O)Cc1ccc(NS(=O)(=O)c2ccccc2)cc1)C(=O)NC(CC(=O)O)c1ccc2c(c1)OCO2 (stereo not drawn) [compound 1074]" readout=pIC50 reading="5.00 to 7.30"
molecule="CC(C)CC(NC(=O)Cc1ccncc1)C(=O)NC(CC(=O)O)c1ccccc1 (stereo not drawn) [compound 1007]" readout=pIC50 reading="< 5.00"
molecule="CC(C)CC(NC(=O)Cc1ccc(N)cc1)C(=O)NC(CC(=O)O)c1ccccc1 (stereo not drawn) [compound 1103]" readout=pIC50 reading="< 5.00"
molecule="COc1cc(CC(=O)NC(CC(C)C)C(=O)NC(CC(=O)O)c2ccc3c(c2)OCO3)ccc1NC(=O)Nc1ccccc1Cl (stereo not drawn) [compound 1222]" readout=pIC50 reading="> 7.30"
molecule="COc1ccccc1C(CC(=O)O)NC(=O)C(CC(C)C)NC(=O)Cc1ccccc1 (stereo not drawn) [compound 1159]" readout=pIC50 reading="< 5.00"
molecule="Cc1cccc(NC(=O)Nc2ccc(CC(=O)NC(CC(C)C)C(=O)NC(CC(=O)O)c3ccc4c(c3)OCO4)cc2)c1 (stereo not drawn) [compound 1168]" readout=pIC50 reading="5.00 to 7.30"
molecule="Cc1ccccc1NC(=O)Nc1ccc(CC(=O)NC(CC(C)C)C(=O)NC(CC(=O)O)c2ccc(F)cc2)cc1 (stereo not drawn) [compound 1248]" readout=pIC50 reading="> 7.30"
molecule="CCCCC(NC(=O)Cc1ccccc1)C(=O)NC(CC(=O)O)c1ccccc1 (stereo not drawn) [compound 1039]" readout=pIC50 reading="5.00 to 7.30"

Hey, just so you know, these numbers are from patent US7001921B1.
